B1: ZNF263 (parent)
chain: EKPYKCPECGEIFAHSSNLLRHQR

Variants of: B1
Experiment: protein stability index of a GFP-peptide fusion (GPS, HEK-293T) (PSI 1-6); higher = more stable;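 note: lentivirally expressed fusions sorted by FACS into six bins by GFP to DsRed ratio, PSI derived from sequencing read proportions per bin multiplied by bin number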
Conditions: c terminus: a fixed tail appended
// reported protein stability index for each item listed
Give a plain numeric answer without units written out.

// solved cases for protein stability index follow
INSERT INTO results (variantnotation, observed) VALUES
  ('N18G', 3.05),
  ('E8K', 3.12),
  ('A14H', 3.17),
  ('N18Y', 3.37),
  ('K5N', 2.5);

Turning now to a further variant:
// protein stability index value for Y4E : 2.99

meta.source: the supplement of paper PMC10567573
